Reference for the values: ChEMBL document CHEMBL4261651

compounds and their reported kcat
System: Escherichia coli
assay method text: Substrate activity at N-terminal His6-tagged Escherichia coli PanK1 expressed in Escherichia coli BL21(DE3) cells assessed as Kcat in presence of ATP/NADH by pyruvate kinase/lactate dehydrogenase enzyme coupled assay
Record the value in s⁻¹, omitting the unit from your answer.

Query string: For the compound `CCCCCn1cc(CCNC(=O)[C@H](O)C(C)(C)CO)nn1` , what kcat is on record?
Result string: 0.72

Query string: For the compound `CC(C)(CO)[C@@H](O)C(=O)NCC(=O)O` , what kcat is on record?
Result string: 1.59

Query string: For the compound `CC(C)(CO)[C@@H](O)C(=O)NCc1cn(CCc2ccccc2)nn1` , what kcat is on record?
Result string: 1.09

***
Query string: For the compound `CCCCCc1cn(CCNC(=O)[C@H](O)C(C)(C)CO)nn1` , what kcat is on record?
Result string: 1.11

Query string: For the compound `COC(=O)CCNC(=O)[C@H](O)C(C)(C)CO` , what kcat is on record?
Result string: 0.8

Query string: For the compound `CO[C@@H](C(=O)NCCC(=O)O)C(C)(C)CO` , what kcat is on record?
Result string: 0.49

Query string: For the compound `COC(=O)CNC(=O)[C@H](O)C(C)(C)CO` , what kcat is on record?
Result string: 0.91

Query string: For the compound `CC(C)(CO)[C@@H](O)C(=O)NCCC(=O)O` , what kcat is on record?
Result string: 1.29

Query string: For the compound `CCCCn1cc(CCNC(=O)[C@H](O)C(C)(C)CO)nn1` , what kcat is on record?
Result string: 1.08

* * *

target of assay: Type II pantothenate kinase (Staphylococcus aureus (strain MSSA476)) (UniProt Q6G7I0)
Sequence (Q6G7I0 whole entry): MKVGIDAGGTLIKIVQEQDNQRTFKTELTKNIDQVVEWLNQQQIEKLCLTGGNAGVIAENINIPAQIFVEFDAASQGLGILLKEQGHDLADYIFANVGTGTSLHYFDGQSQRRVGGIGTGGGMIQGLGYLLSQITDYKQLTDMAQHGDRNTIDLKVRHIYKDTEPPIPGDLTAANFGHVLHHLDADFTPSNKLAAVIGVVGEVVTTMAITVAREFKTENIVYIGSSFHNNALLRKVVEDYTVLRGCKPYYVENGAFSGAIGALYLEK
assay method text: Substrate activity at N-terminal His6-tagged Staphylococcus aureus PanK2 expressed in Escherichia coli BL21(DE3) cells assessed as ratio of Kcat to Km in presence of ATP/NADH by pyruvate kinase/lactate dehydrogenase enzyme coupled assay
measurement kind: log10(Ratio) (log10 of the value in mM⁻¹ s⁻¹)
A value of 2 here means Ratio of 100 in mM⁻¹ s⁻¹, since values are log10.

Worked set:
Query string: For the compound `COC(=O)CCNC(=O)[C@H](O)C(C)(C)CO` , what log10(Ratio) is on record?
Result string: 0.92

Query string: For the compound `CCCCCn1cc(CCNC(=O)[C@H](O)C(C)(C)CO)nn1` , what log10(Ratio) is on record?
Result string: 2.03

Query string: For the compound `CC(C)(CO)[C@@H](O)C(=O)NCCC(=O)O` , what log10(Ratio) is on record?
Result string: 2.06

Query string: For the compound `CC(C)(CO)[C@@H](O)C(=O)NCc1cn(CCc2ccccc2)nn1` , what log10(Ratio) is on record?
Result string: 1.57

Query string: For the compound `COC(=O)CCCNC(=O)[C@H](O)C(C)(C)CO` , what log10(Ratio) is on record?
Result string: 0.85

Query string: For the compound `COC(=O)CNC(=O)[C@H](O)C(C)(C)CO` , what log10(Ratio) is on record?
Result string: 2.06

Continue with the compound presented below.
Query string: For the compound `CCCCn1cc(CCNC(=O)[C@H](O)C(C)(C)CO)nn1` , what log10(Ratio) is on record?
Result string: 2.06

* * *

target of assay: Type II pantothenate kinase (Staphylococcus aureus (strain MSSA476)) (UniProt Q6G7I0)
assay method text: Substrate activity at N-terminal His6-tagged Staphylococcus aureus PanK2 expressed in Escherichia coli BL21(DE3) cells assessed as ratio of Kcat to Km in presence of ATP/NADH by pyruvate kinase/lactate dehydrogenase enzyme coupled assay
compounds and their reported Ratio

Worked set:
Query string: Can you look up Ratio on Type II pantothenate kinase (Staphylococcus aureus (strain MSSA476)) (UniProt Q6G7I0) for `CCCCCNC(=O)CCNC(=O)[C@H](O)C(C)(C)CO` ?
Result string: > 290 mM⁻¹ s⁻¹

Query string: Can you look up Ratio on Type II pantothenate kinase (Staphylococcus aureus (strain MSSA476)) (UniProt Q6G7I0) for `CC(C)(CO)[C@@H](O)C(=O)NCCCC(=O)O` ?
Result string: 57 mM⁻¹ s⁻¹

Query string: Can you look up Ratio on Type II pantothenate kinase (Staphylococcus aureus (strain MSSA476)) (UniProt Q6G7I0) for `CCCCCc1cn(CCNC(=O)[C@H](O)C(C)(C)CO)nn1` ?
Result string: 97 mM⁻¹ s⁻¹

Query string: Can you look up Ratio on Type II pantothenate kinase (Staphylococcus aureus (strain MSSA476)) (UniProt Q6G7I0) for `CCCCCn1cc(CNC(=O)[C@H](O)C(C)(C)CO)nn1` ?
Result string: 54 mM⁻¹ s⁻¹

***
Query string: Can you look up Ratio on Type II pantothenate kinase (Staphylococcus aureus (strain MSSA476)) (UniProt Q6G7I0) for `CCCc1cn(CCCNC(=O)[C@H](O)C(C)(C)CO)nn1` ?
Result string: 21 mM⁻¹ s⁻¹
